- tested system: SARS-CoV RBD (SARS-CoV, UniProt P59594)
- assay: ELISA
Quick list: EC50 per entry.

Identify EC50 associated with the binder C022 (antibody, V domains shown) VH: QVQLQESGPGLVKPSETLSVTCTVSGGSISSSRYYWGWIRQPPGKGLEWIGSIYYSGSTYYNPSLKSRVTISVDTSKNQFSLKLSSVTAADTAVYYCARHAAAYYDRSGYYFIEYFQHWGQGTLVTVSS VL: DIQMTQSPSTLSASVGDSVTITCRASQSISSWLAWYQQKPGKAPKLLIYKASSLESGVPSRFSGSGSGTEFTLTISSLQPDDFATYYCQQYNNYRYTFGQGTKLEIK
0.00599 µg/mL

State its EC50: C113 (antibody, V domains shown) VH: QVQLVESGGGVVQPGRSLRLSCAASGFTFSNFGMHWVRQAPGKGLEWVAVIWYDGSNKYYADSVKGRFTISRDNSKNTLYLQMNSLRAEDTAVYYCARGVNPDDILTGVDAFDIWGQGTMVTVSS VL: DIQMTQSPSTLSASVGDRVTITCRASQSMSSWLAWYQQKPGNAPKLLIYKASSLESGVPSRFSGSGSGTEFTLTISSLQPDDFATYYCQQHNSSPLTFGGGTKVEIK
> 1 µg/mL

Identify measured EC50 corresponding to C145 (antibody, V domains shown) VH: EVQLVESGGGLIQPGGSLRLSCAASGFSVSSNYMSWVRQAPGKGLEWVSVIYSGGSTYYADSVKGRFTISRDNSKNTLYLQMNSLRAEDTAVYYCAREGEVEGYYDFWSGYSRDRYYFDYWGQGTLVTVSS VL: QSALTQPASVSGSPGQSITISCTGTSSDVGGYNYVSWYQQHPGKAPKLMIYDVSNRPSGVSNRFSGSKSGNTASLTISGLQAEDEADYYCSSYTSSTTRVFGTGTRVTVL
> 1 µg/mL

Query EC50 for C202 (antibody, V domains shown) VH: EVQLVESGGGLVQPGGSLRLSCAASGFTVSSNYMSWVRQAPGKGLEWVSLIYSGGSTYYADSVKGRFTISRDNSKNTLYLQMNSLRAEDTAVYYCARDTLGRGGDYWGQGTLVTVSS VL: DIQLTQSPSSLSASVGDRVTITCQASQDISNYLNWYQQKPGKAPKLLIYDASNLETGVPSRFSGSGSGTDFTFTISSLQPEDIATYYCQQYDNLPRSFGQGTKLEIK
> 1 µg/mL

# next binder below
Tell me EC50 reported for C210 (antibody, V domains shown) VH: EVQLVESGGGLIQPGGSLRLSCAASGFTVSSNYMSWVRQAPGKGLEWVSVIYSGGSTFYADSVKGRFTFSRDNSKNTLYLQMNSLRAEDTAVYYCARDLMAYGMDVWGQGTTVTVSS VL: DIQLTQSPSFLSASVGDRVTITCRASQGISSYLAWYQQKPGKAPKLLIYAASTLQSGVPSRFSGSGSGTEFTLTISSLQPEDFATYYCQQLNSYPQGTFGGGTKVEIK
> 1 µg/mL
